Entries with reported AC50 on Sodium-dependent noradrenaline transporter (Homo sapiens, UniProt P23975)
Sequence (P23975 whole entry): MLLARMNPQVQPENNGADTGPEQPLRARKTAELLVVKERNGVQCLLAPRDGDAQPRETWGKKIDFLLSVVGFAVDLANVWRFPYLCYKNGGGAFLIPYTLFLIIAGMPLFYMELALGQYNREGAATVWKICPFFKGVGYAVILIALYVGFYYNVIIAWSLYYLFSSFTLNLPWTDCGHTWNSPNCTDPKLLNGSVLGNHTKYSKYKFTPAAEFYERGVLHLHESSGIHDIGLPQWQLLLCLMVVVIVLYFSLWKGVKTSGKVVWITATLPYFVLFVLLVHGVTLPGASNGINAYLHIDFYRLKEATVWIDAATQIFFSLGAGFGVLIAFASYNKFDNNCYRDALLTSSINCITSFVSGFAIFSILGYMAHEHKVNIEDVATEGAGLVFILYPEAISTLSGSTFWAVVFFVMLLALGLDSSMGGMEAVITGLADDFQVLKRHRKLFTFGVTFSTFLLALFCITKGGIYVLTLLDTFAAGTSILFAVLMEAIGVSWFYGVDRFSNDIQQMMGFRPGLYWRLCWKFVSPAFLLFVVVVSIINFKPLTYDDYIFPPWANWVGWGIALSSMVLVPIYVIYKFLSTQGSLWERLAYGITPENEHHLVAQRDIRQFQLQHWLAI
readout: AC50

>>> df
                                   molecule  observed_value
0  CC1(C)S[C@@H]2[C@H](NC(=O)C(C(=O)O)c3ccccc3)C(=O)N2[C@H]1C(=O)O (stereo not given in full) [CARBENICILLIN]         > 30 µM
1  CC(Cc1cccc(C(F)(F)F)c1)NCCOC(=O)c1ccccc1 (stereo not given) [BENFLUOREX]           23 µM
2  CCc1cc2c(s1)-n1c(C)nnc1CN=C2c1ccccc1Cl [ETIZOLAM]         > 30 µM
3               NNC(=O)c1ccncc1 [ISONIAZID]         > 30 µM
4          CC(C)c1cccc(C(C)C)c1O [PROPOFOL]         > 30 µM
5   CCCC(C)(COC(N)=O)COC(N)=O [MEPROBAMATE]         > 10 µM
6        C=CCN1CCc2nc(N)sc2CC1 [TALIPEXOLE]         > 30 µM
7  NS(=O)(=O)c1cc2c(cc1Cl)N=C(CSCc1ccccc1)NS2(=O)=O [BENZTHIAZIDE]         > 10 µM
8     Cc1cc(=O)n(-c2ccccc2)n1C [ANTIPYRINE]         > 30 µM
9  Cc1ccc(C)c(OCCCC(C)(C)C(=O)O)c1 [GEMFIBROZIL]         > 10 µM
